Biological target: T1, hNPR1-mFc:hANP or hNPR1-hFc:hANP complex (human, UniProt P01160 124-151)
T1 construct: also called human NPR1 complexed to ANP
Assay: SPR, mAb captured, 37C
Entries and their Kd
Number only, in nM; omit the unit.

Solved cases below.
binder	Kd / nM
mAb25502 (antibody, human IgG4, V domains shown) VH: QLQLQESGPGLVKPSETLSLTCTVSGGSISSSSYYWGWIRQPPGKGLEWIGSIYYSGSPYYIPSLKSRVTISVDTSKNQFSLKLSSVTAADTAMYYCARQGRGIARAGPFDYWGQGTLVTVSS VL: DIQMTQSPSSLSASVGDRVTITCRASQGISNYLAWYQEKPGKVPKLLIYAASTLQSGVPSRFSGSGSGTDFTLTITSLQSEDVATYYCQKYNSAPPWTFGQGTKVEIK	6.49
mAb22805 (antibody, human IgG4, V domains shown) VH: QVQLVESGGGVVQPGRSLRLSCAASGFTFSTYGMHWVRQAPGKGLEWVALIWNDGSNKYYADSVKGRFTISRDNSKNTLDLQMNSLRAEDTAVYYCARLNTRITGTTNLDYWGQGTLVTVSS VL: DIQMTQSPSSLSASVGDRVTVSCRASQSIANYLNWYQQKPGKAPNLLIYGAYTLQSGVPSRFRGSGSGTDFTLTISSLQPEDFATYYCQQTYSTPPITFGQGTRLEIK	4.91
mAb25491 (antibody, human IgG4, V domains shown) VH: QVQLVQSGAEVMKPGASVKVSCKASGYTFTGYYIHWVRQAPGQGLEWMGWITPNSGATNYAQKFQGRVTLTRDTSISTAYMELTRLKSDDTAVYYCARGGQLEFFYYYYGMDVWGQGTTVTVSS VL: DIQMTQSPSSLSASAGDRVTITCRASQSIDSYLNWYQQKPGKAPKLLISATSGFQSGVPSRFSGSGSGTDFTLTISSLQPEDFGTYYCQQSYTTPITFGQGTRLEIK	1.95

Next up:
Ask: Requested read-out: Kd. Entry: mAb22033 (antibody, human IgG4, V domains shown) VH: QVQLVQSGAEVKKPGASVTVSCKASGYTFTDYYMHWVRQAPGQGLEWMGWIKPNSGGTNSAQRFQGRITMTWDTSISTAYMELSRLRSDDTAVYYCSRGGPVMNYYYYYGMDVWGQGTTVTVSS VL: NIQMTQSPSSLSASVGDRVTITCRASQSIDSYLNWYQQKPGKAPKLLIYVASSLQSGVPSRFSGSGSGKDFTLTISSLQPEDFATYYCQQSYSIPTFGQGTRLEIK
Result: 1.69

Data origin, for the record: patent US20240309103A1
